These measurements were taken from patent US20130158066A1.

test system: IL-2 production in Jurkat cell; assay: Jurkat IL-2 Production Assay; format: cell-based; details: Homo sapiens, Jurkat cell (ATCC), 18-20 h incubation, serum/stimulant condition (1% FBS/PHA or 30% FBS/PMA-ionomycin) not given
property measured: IC50 (nM)

Recorded IC50, per entry:
INSERT INTO measurements (compound, target_under_test, property_measured, readout_unit, quantitative_result) VALUES
  ('Cc1cc(C(F)(F)F)ccc1-c1ccc2[nH]c(-c3c(F)cccc3Cl)cc2n1 [Example 4]', 'IL-2 production in Jurkat cell', 'IC50', 'nM', 80),
  ('Cc1cc(C#N)ccc1-c1ccc2[nH]c(-c3c(F)cccc3Cl)cc2n1 [Example 5]', 'IL-2 production in Jurkat cell', 'IC50', 'nM', 347),
  ('Cn1nc(C(F)(F)F)cc1-c1ccc2[nH]c(-c3c(F)cccc3Cl)cc2n1 [Example 3]', 'IL-2 production in Jurkat cell', 'IC50', 'nM', 94),
  ('Cc1cc(S(=O)(=O)N(C)C)ccc1-c1ccc2[nH]c(-c3c(F)cccc3F)cc2n1 [Example 10]', 'IL-2 production in Jurkat cell', 'IC50', 'nM', 134);

(A) Cc1cc(S(=O)(=O)N(C)C)ccc1-c1ccc2[nH]c(-c3ccc(F)cc3Cl)cc2n1 [Example 9]
(B) Cn1nc(C(F)(F)F)cc1-c1ccc2[nH]c(-c3c(F)cccc3F)cc2n1 [Example 12]
(C) Cc1cc(S(=O)(=O)N(C)C)ccc1-c1ccc2[nH]c(-c3ccccc3Cl)cc2n1 [Example 7]
(D) Cc1cc(C#N)ccc1-c1ccc2[nH]c(-c3c(F)cccc3F)cc2n1 [Example 11]
### Prompt // ranking: key=IC50, reverse=True Write the labels, ordered according to the request.
### Response D, C, B, A
(D: 767 nM, C: 300 nM, B: 200 nM, A: 98 nM)

###

system: IL-2 production in Jurkat cell; test: Jurkat IL-2 Production Assay; assay type: cell-based; details: Homo sapiens, Jurkat cell (ATCC), 18-20 h incubation, serum/stimulant condition (1% FBS/PHA or 30% FBS/PMA-ionomycin) not given
pIC50: −log10 of the molar value.
property measured: pIC50

INSERT INTO results (smiles_string, quantitative_result) VALUES
  ('COc1cc(F)c(-c2cc3nc(-c4ccc(S(=O)(=O)N(C)C)cc4C)ccc3[nH]2)c(F)c1', 6.77),
  ('Cn1nc(C(F)(F)F)cc1-c1ccc2[nH]c(-c3ccc(F)cc3Cl)cc2n1', 6.83);

(1) Cc1cc(Cl)ncc1-c1ccc2[nH]c(-c3c(F)cccc3Cl)cc2n1
(2) Cc1cc(S(=O)(=O)N(C)C)ccc1-c1ccc2[nH]c(-c3c(F)cccc3Cl)cc2n1
### Prompt Between the entries labelled 1 and 2 , which has a larger pIC50 value on record? When you have decided, please share the label of that item.
### Response 2
(2: 7.04, 1: 6.61)
